Tested on: tadpole
Assay: Tadpole loss of righting reflex
Assay type: in vivo
Settings: read-out: Tadpole LRR EC50; ± SEM, N = 10 or more animals at each of five or more concentrations
pEC50: −log10 of the molar value.
Reported Property: pEC50

For "C[C@]12CC[C@@H](O)C[C@@H]1CC[C@@H]1[C@@H]2C(=O)C[C@]2(C)C(C=O)=CC[C@@H]12" the molecule record lists pEC50 as ~5.52

Numbers sourced from paper PMC3794474.
